tested on: H2122; assay: Dose response study (Alamar Blue), H2122; type: cell-based; details: Homo sapiens, NCI-H2122; H2122; 12 point doubling dilution 10 uM to 5 nM; 48 h treatment, alamar blue additional 48 h; read-out: IC50 H2122
Measured Attribute: IC50 (nM)
The answer is to be given in nM; state only the numeric part.

Some compounds with known IC50 results, for comparison:
- Smiles Data: "O=c1c(Cl)c(Cl)cnn1-c1ccc2c(c1)OCCO2"
  IC50 [nM]: 1590
- Smiles Data: "CCc1cccc(-n2ncc(Cl)c(Cl)c2=O)c1"
  IC50 [nM]: 2550
- Smiles Data: "COc1cccc(-n2ncc(Cl)c(Cl)c2=O)c1"
  IC50 [nM]: 1200

q: Identify measured IC50 corresponding to COCCOc1cccc(-n2ncc(Br)c(Br)c2=O)c1
a: 1120

q: Identify measured IC50 corresponding to Cc1cc(C)cc(-n2ncc(Cl)c(Cl)c2=O)c1
a: 2210

* * *

assay: in vitro; conditions: human, CytoTox (uM) NHBE
Reported IC50 at 72 h values for a set of compounds
The answer is to be given in µM; state only the numeric part.

q: Identify measured IC50 at 72 h corresponding to Cc1cccc(-n2ncc(Cl)c(Cl)c2=O)c1C
a: 3.89

q: Identify measured IC50 at 72 h corresponding to O=c1c(Br)c(Br)cnn1-c1ccccn1
a: 1.33

q: Identify measured IC50 at 72 h corresponding to O=c1c(Cl)c(Cl)cnn1-c1ccccc1
a: 3.29

q: Identify measured IC50 at 72 h corresponding to O=c1c(Br)c(Br)cnn1-c1cccc(C(F)(F)F)c1
a: 1.43

q: Identify measured IC50 at 72 h corresponding to O=c1c(Cl)c(Cl)cnn1-c1cccc(C(F)(F)F)c1
a: 2.76

q: Identify measured IC50 at 72 h corresponding to Cc1cc(-n2ncc(Cl)c(Cl)c2=O)ccc1Br
a: 4.04

q: Identify measured IC50 at 72 h corresponding to O=c1c(Cl)c(Cl)cnn1-c1ccc2c(c1)CCC2
a: 1.74

q: Identify measured IC50 at 72 h corresponding to CCCCc1cccc(-n2ncc(Cl)c(Cl)c2=O)c1
a: 5.34

q: Identify measured IC50 at 72 h corresponding to Cc1cc(C)cc(-n2ncc(Cl)c(Cl)c2=O)c1
a: 3.18

q: Identify measured IC50 at 72 h corresponding to Cc1ccc(-n2ncc(Cl)c(Cl)c2=O)cc1C
a: 3.24

q: Identify measured IC50 at 72 h corresponding to O=c1c(Cl)c(Cl)cnn1-c1ccc(C(F)(F)F)cc1
a: 3.44

* * *

Reported IC50 values for a set of compounds
system: H2030; test: Non Small Cell Lung Cancer proliferation assay (Alamar Blue reduction), H2030; assay type: cell-based, human; conditions: Homo sapiens, NCI-H2030, dose response 10 M to 5 nM; IC50; read-out: Dose Response (uM) H2030
The answer is to be given in µM; state only the numeric part.

Some compounds with known IC50 results, for comparison:
- Smiles Data: "COCCOc1cccc(-n2ncc(Br)c(Br)c2=O)c1"
  Measured Attribute: "IC50"
  Output Unit: "µM"
  Endpoint Result: 0.61
- Smiles Data: "Cc1cccc(-n2ncc(Cl)c(Cl)c2=O)c1C"
  Measured Attribute: "IC50"
  Output Unit: "µM"
  Endpoint Result: 0.89

Please turn your attention to the following entry.
q: Identify measured IC50 corresponding to O=c1c(Br)c(Br)cnn1-c1ccccn1
a: 0.76
